# System: SW 900
# PROTOCOL: relative viability (nuclei count vs DMSO), 5 days (fraction); higher = more cells survive
# EXPERIMENTAL_PARAMETERS: first compound 0.06325 µM
MEASURE: relative viability
// print number alone

Ask: Name the reported relative viability value associated with the molecule CCNC(=O)c1noc(-c2cc(C(C)C)c(O)cc2O)c1-c1ccc(CN2CCOCC2)cc1 [Luminespib] + CC(=O)Nc1cccc(-n2c(=O)n(C3CC3)c(=O)c3c(Nc4ccc(I)cc4F)n(C)c(=O)c(C)c32)c1 [Trametinib] (partner 0.02 µM)
Result: 0.165

Ask: Thanks! And CCNC(=O)c1noc(-c2cc(C(C)C)c(O)cc2O)c1-c1ccc(CN2CCOCC2)cc1 [Luminespib] + CC(=O)c1c(C)c2cnc(Nc3ccc(N4CCNCC4)cn3)nc2n(C2CCCC2)c1=O [Palbociclib] (partner 0.5 µM) ?
Result: 0.144

Ask: Now give it for CCNC(=O)c1noc(-c2cc(C(C)C)c(O)cc2O)c1-c1ccc(CN2CCOCC2)cc1 [Luminespib] + O=C(CCCCCCC(=O)Nc1ccccc1)NO [Vorinostat] (partner 1 µM) too.
Result: 0.124

Ask: Also CCNC(=O)c1noc(-c2cc(C(C)C)c(O)cc2O)c1-c1ccc(CN2CCOCC2)cc1 [Luminespib] + COc1cccc2cc(-c3nc([C@H]4CC[C@H](C(=O)O)CC4)n4ncnc(N)c34)[nH]c12 [OSI-027] (partner 0.5 µM) ?
Result: 0.0999

Ask: CCNC(=O)c1noc(-c2cc(C(C)C)c(O)cc2O)c1-c1ccc(CN2CCOCC2)cc1 [Luminespib] + O=C(c1cc(Cc2n[nH]c(=O)c3ccccc23)ccc1F)N1CCN(C(=O)C2CC2)CC1 [Olaparib] (partner 8 µM) , same question.
Result: 0.163

Ask: Further, for CCNC(=O)c1noc(-c2cc(C(C)C)c(O)cc2O)c1-c1ccc(CN2CCOCC2)cc1 [Luminespib] + N=C(N)NC(=N)NCCc1ccccc1 [Phenformin] (partner 250 µM) ?
Result: 0.0721

====

# Test system: NCI-H2126
# PROTOCOL: relative viability (nuclei count vs DMSO), 5 days (fraction); higher = more cells survive
# EXPERIMENTAL_PARAMETERS: first compound 8 µM
Consider the cut-off 0.6. If the recorded relative viability is strictly smaller, the label is true (1); if not, the label is false (0).

Ask: is_below(relative viability, 0.6) for Nc1cccc2c1CN(C1CCC(=O)NC1=O)C2=O (configuration not stated) [Lenalidomide] + O=C(c1cc(Cc2n[nH]c(=O)c3ccccc23)ccc1F)N1CCN(C(=O)C2CC2)CC1 [Olaparib] (partner 8 µM) ?
Result: false (0)

Ask: Next entry: Nc1cccc2c1CN(C1CCC(=O)NC1=O)C2=O (configuration not stated) [Lenalidomide] + NC(=O)Nc1cc(-c2cccc(F)c2)sc1C(=O)N[C@H]1CCCNC1 [AZD7762] (partner 0.2 µM)
Result: false (0)

Ask: # repeat for Nc1cccc2c1CN(C1CCC(=O)NC1=O)C2=O (configuration not stated) [Lenalidomide] + Cc1nc(NC(=O)N2CCC[C@H]2C(N)=O)sc1-c1ccnc(C(C)(C)C(F)(F)F)c1 [Alpelisib] (partner 2 µM)
Result: true (1)

Ask: // query: Nc1cccc2c1CN(C1CCC(=O)NC1=O)C2=O (configuration not stated) [Lenalidomide] + CC(C)C[C@H](NC(=O)[C@H](Cc1ccccc1)NC(=O)c1cnccn1)B(O)O [Bortezomib] (partner 0.002 µM)
Result: false (0)

Ask: Also, Nc1cccc2c1CN(C1CCC(=O)NC1=O)C2=O (configuration not stated) [Lenalidomide] + N=C(N)NC(=N)NCCc1ccccc1 [Phenformin] (partner 250 µM) please.
Result: true (1)

Ask: Now give it for Nc1cccc2c1CN(C1CCC(=O)NC1=O)C2=O (configuration not stated) [Lenalidomide] + CC(=O)Nc1cccc(-n2c(=O)n(C3CC3)c(=O)c3c(Nc4ccc(I)cc4F)n(C)c(=O)c(C)c32)c1 [Trametinib] (partner 0.02 µM) too.
Result: true (1)
